Compiled notes: published IC50 values involving Aurora kinase B (Homo sapiens, UniProt Q96GD4).
MEASUREMENT_LABEL: IC50 (nM)

| COMPOUND | MEASUREMENT_LABEL | OP | ASSAY_VALUE |
| --- | --- | --- | --- |
| NC(=O)/C(=C1\Nc2ccccc2S1)c1nc(C(F)(F)F)cc(C(F)(F)F)n1 | IC50 | = | 7 |
| O=C(c1cccc(Cl)c1F)N1CCN(Cc2cncc(Nc3nccs3)n2)CC1 | IC50 | = | 9900 |
| CCOC(=O)CCc1c(/C=C2\C(=O)Nc3ccc(NS(=O)(=O)c4ccccc4)cc32)[nH]c2c1C(=O)CCC2 | IC50 | = | 214 |
| COc1cc(Nc2nccc(-c3c[nH]c4ccccc34)n2)cc(OC)c1OC | IC50 | = | 66.4 |
| Cn1cc(Nc2ncc(Cl)c(NC3CC4CN(C(=O)NC5CC5)CC4C3)n2)cn1 (centres unmarked) | IC50 | = | 1 |
| CC(C)N1CCC(Oc2ccc(-c3n[nH]c4ccc(NC(=O)C(c5ccsc5)N5CCCC5)cc34)cc2)CC1 (centres unmarked) | IC50 | ≤ | 5000 |
| CCOC(=O)CCc1c(/C=C2\C(=O)Nc3ccc(NS(=O)(=O)c4ccccc4)cc32)[nH]c2c1C(=O)CCCC2 | IC50 | = | 439 |
| O=C(c1cccc(Cl)c1F)N1C[C@@H]2C[C@H]1CN2Cc1cncc(Nc2cc[nH]n2)n1 | IC50 | = | 1400 |
